Reported Emax by item:
Target: A1 adenosine receptor (Mesocricetus auratus, UniProt A0A1U8BVR4)
Construct: endogenous in cells; host or cells: DDT1 (DDT1 MF-2) hamster vas deferens smooth muscle cells
Sequence (A0A1U8BVR4 1-326): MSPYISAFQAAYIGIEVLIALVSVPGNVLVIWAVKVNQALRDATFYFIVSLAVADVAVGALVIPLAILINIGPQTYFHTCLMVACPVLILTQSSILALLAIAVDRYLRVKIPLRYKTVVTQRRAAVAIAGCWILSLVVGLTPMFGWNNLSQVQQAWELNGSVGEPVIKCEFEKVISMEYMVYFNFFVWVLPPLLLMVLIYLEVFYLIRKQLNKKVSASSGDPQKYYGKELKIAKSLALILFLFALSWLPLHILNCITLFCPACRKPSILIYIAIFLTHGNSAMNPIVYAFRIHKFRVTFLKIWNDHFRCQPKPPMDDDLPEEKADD
Experiment: [35S]GTPγS binding assay, A1-agonist stimulated
Assay type: biochemical, hamster
Details: […], agonist stimulated [35S]GTPγS binding, CPA = 100%
Report as: number unit

Solved cases below.
# MOLECULE, Emax
records = [
    ("C=CCNC(=S)OCC1OC(n2cnc3c(N[C@@H]4CCOC4)ncnc32)C(O)C1O (stereo partly shown) [Compound 60]", "77%"),
    ("CNC(=S)NC[C@H]1O[C@@H](n2cnc3c(N[C@@H]4CCOC4)ncnc32)[C@H](O)[C@@H]1O [Compound 77]", "101%"),
    ("COC(=O)C1CCCC1NC(=O)OCC1OC(n2cnc3c(N[C@@H]4CCOC4)ncnc32)C(O)C1O (stereo partly shown) [Compound 34]", "17%"),
    ("O=C(NC1CCCC1)SCC1OC(n2cnc3c(NC4CCOC4)ncnc32)C(O)C1O (stereo not shown) [Compound 73]", "109%"),
    ("O=C(O)CNC(=O)OC[C@H]1O[C@@H](n2cnc3c(N[C@@H]4CCOC4)ncnc32)[C@H](O)[C@@H]1O [Compound 68]", "76%"),
    ("O[C@@H]1[C@H](O)[C@@H](CSC(=S)NC2CCCC2)O[C@H]1n1cnc2c(N[C@@H]3CCOC3)ncnc21 [Compound 75]", "91%"),
]

Lab note: next molecule to report on.
The molecule identified as CNC(=S)OC[C@H]1O[C@@H](n2cnc3c(N[C@@H]4CCOC4)ncnc32)[C@H](O)[C@@H]1O [Compound 45] registered its Emax at 77%

From: patent US20020037872A1
